# System: HOP-18 NSCLC
# run_description: NCI tumour cell line growth inhibition, 48 h

{"molecule": "CCCCCCCCOCC(O)COC(=O)CCCCCCC (stereo unspecified)", "TGI": "> 100 µM"}
{"molecule": "CNCc1cc(OC)ccc1-c1ccc(OC)c(OC)c1OC", "TGI": "> 100 µM"}
{"molecule": "Cc1ccc(NC(=O)C(=O)C(C#N)c2nc(-c3ccc(-c4ccccc4)cc3)cs2)c(C)c1 (stereo unspecified)", "TGI": "> 100 µM"}
{"molecule": "CO[C@@H]1C=C[C@@]23c4cc5c(cc4C(=O)O[C@H]2CN(C)[C@H]3C1)OCO5", "TGI": "> 100 µM"}
{"molecule": "OCC(O)C(O)C(O)c1nn(-c2ccc(Cl)cc2)c2nc3cc(Cl)c(Cl)cc3nc12 (stereo unspecified)", "TGI": "> 100 µM"}
{"molecule": "CC(=O)OC1CCCn2c1nc1c2C(=O)C(C)=C(N2CC2)C1=O (stereo unspecified)", "TGI": "1.11 µM"}

Cited source for all entries: PubChem BioAssay (NCI)
